Molecular target: 5-HT2C receptor (Homo sapiens, UniProt P28335)
Sequence (P28335 33-458): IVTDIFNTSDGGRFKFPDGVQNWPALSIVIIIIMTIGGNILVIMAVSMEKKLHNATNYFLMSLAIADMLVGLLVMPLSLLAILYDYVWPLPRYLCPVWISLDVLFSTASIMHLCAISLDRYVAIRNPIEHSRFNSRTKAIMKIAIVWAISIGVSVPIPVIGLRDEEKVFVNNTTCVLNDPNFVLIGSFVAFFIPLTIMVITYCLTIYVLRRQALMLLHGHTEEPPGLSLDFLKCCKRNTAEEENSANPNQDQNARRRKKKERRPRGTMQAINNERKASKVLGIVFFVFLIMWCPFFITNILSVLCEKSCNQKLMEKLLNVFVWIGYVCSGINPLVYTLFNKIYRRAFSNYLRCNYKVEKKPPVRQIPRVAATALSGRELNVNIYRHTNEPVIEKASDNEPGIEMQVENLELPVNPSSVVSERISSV
measured-metric: pKi
Answers are plain numbers, as −log10 of the molar value.

query: Given the compound CC(C)N(CCc1c[nH]c2ccccc12)C(C)C , what is its reported pKi?
result: 6.54

Reference source: paper PMC4282596
